Tested on: MS2 coat protein
Assay: apparent Kd, MS2 coat protein; higher = weaker binding; RNA-MaP array
Conditions: designed as: ON switch for theophylline; no ligand
If the reported apparent Kd equals or exceeds 0.05 µM, assign 1 (yes). If not, assign 0 (no).

| primary.sequence | cat |
| --- | --- |
| UACAAACAUGAGGAUCACCCAUGUAGUGAUACCAGCAUAACAGAUUGCCCUUGGCAGCACCGGUUUGUACUCAAACGAAGUACGG | 1 (yes) |
| GGGCGACAUGAGGAUCACCCAUGUGUCGAUACCAGUAUGAAUUUCUACCCUUGGCAGCGACGACACGGUUAUUUGUGCACUUCGA | 1 (yes) |
| ACGAGACGUCUGGAUACCAGCCCAGCGAUAAACAUGAGGAUCACCCAUGUCAAACCACCCGGCCCUUGGCAGCCACGUACCUCAC | 0 (no) |
| AUGCGCUAUAUGGAUACCAGUAUGAUAAUUGACAUGAGGAUCACCCAUGUGAGCUCUACCUACCCUUGGCAGCCAACCCUAUUUG | 0 (no) |
| UAUGUCGCCGAAGAUACCAGCCUGGCAAGCAACAUGAGGAUCACCCAUGUAAUUACUUAUGGCCCUUGGCAGCUUCAAAUAGAGC | 0 (no) |

----------
Tested on: MS2 coat protein
Experiment: apparent Kd, MS2 coat protein; higher = weaker binding; RNA-MaP array; theophylline 2 mM where present
Details: designed as: ON switch for theophylline; no ligand
Classify by measured apparent Kd: true if it is equal to or exceeds 40 nM, false if it is smaller.

| primary.sequence | cat |
| --- | --- |
| AUUGGGUUAUCAGAUACCAGACUAUUCUAGACAUGAGGAUCACCCAUGUAUUGGGUUUUCGUCCCUUGGCAGCUGUUAAGUUUAA | true |
| ACGACGCAUAGUGAUACCAGUAGAACAUGAGGAUCACCCAUGUCUGUGACGCACCACCUCUGCCCUUGGCAGCACUAUGCGUCAG | false |
| UGUAACAUGAGGAUCACCCAUGUGCACGAUACCAGCUUAUUGAUAGGCCCUUGGCAGCGUAUGCGGAAGCUGUAUAAUAUAUAUC | false |
| UGUAAAAUAACAGAUACCAGCGUGUUAUAAAACAUGAGGAUCACCCAUGUAGUGAUCAAGCGCCCUUGGCAGCUGGUAUUUUAUG | true |
| UGUUUGGUGCGCGAGUGUUGGAUGAUUGAUACCAGUGAAGAAGAGCGCCCUUGGCAGCGAAUCCUAACAUGAGGAUCACCCAUGU | true |
| GGUGUAUCCAUCGAUACCAGCCACCACCGAUAGACCACAUGAGGAUCACCCAUGUUGGGUGGCCCUUGGCAGCGGUGGCUGUGCC | true |
| UUAAGAGGCUAUCAAAUUUGAUUUUGUGAUACCAGAAUAAUUUUAUUCCCUUGGCAGCAUGACAUGAGGAUCACCCAUGUGUCUU | false |

----------
Tested on: MS2 coat protein
Assay: apparent Kd, MS2 coat protein; higher = weaker binding; RNA-MaP array; theophylline 2 mM where present
Conditions: ligand present: theophylline; designed as: OFF switch for theophylline

| primary.sequence | apparent Kd (µM) |
| --- | --- |
| UUUUAAAGCAUGGCGUAUCGGAAAACCGAUACCAGUACAGAAAUGUACCCUUGGCAGCGGAAUUUUACAUGAGGAUCACCCAUGU | 0.0434 |
| UACAUGAGGAUCACCCAUGUAUGAAUAGAUACCAGCGAAAAUAAGCGCCCUUGGCAGCUAGUGAAUAAAGGGUGGGUAAAAUAAU | 0.0199 |
| AACAUGAGGAUCACCCAUGUCAUGUUGGAUACCAGCCAAUAAUAAGGCCCUUGGCAGCUAUAGAUCGAUGAUCCAUGAGGAUCAC | 0.0253 |
| AGACAUGAGGAUCACCCAUGUAGUACGGAUACCAGAUCCAGAUGCGUCCCUUGGCAGCUGUAGUACAGCGUUACAUCGCUCGUAG | 0.0321 |
| AAAACACAUGAGGAUCACCCAUGUCAUGAUACCAGUCCACAUGAGGACCCUUGGCAGCAUAAAAUGGGUAACAUGAGGAUAACCC | 0.0828 |
| AGCCUAUUACAUGAGGAUCACCCAUGUGAUACCAGUCAGGAAACUGACCCUUGGCAGCGCAUGAGGAUCACCCAUGCGCGAGGCA | 0.0119 |
| CAAACAUGAGGAUCACCCAUGUAAUCAGAUACCAGUGACGAAAGUCACCCUUGGCAGCUGAGUACAUUAGUUCUAAGGUGUUUGA | 0.0502 |
| AUACACCUCGUCCAGGCAAUCUUUAGUGAUACCAGCUAACUCCGUGGCCCUUGGCAGCACAUGAGGAUCACCCAUGUGCGACAUC | 0.0118 |
| AGACAUGAGGAUCACCCAUGUAGCAUGGAUACCAGAUGUAGAUUAGUCCCUUGGCAGCUGUGGUGAAGUGAUGCAUUGCUCCUAG | 0.0616 |
| UGACAUUGCUGCGAUACCAGACAUGAGGAUCACCCAUGUACCAAGGUACGAAAAUAACAUGUCCCUUGGCAGCGCAGCAAUGUCU | 0.254 |
| AGACAUGAGGAUCACCCAUGUAGUACGGAUACCAGAUCCAGAUUUAUCCCUUGGCAGCUGUGGUACAGCGUUGCAACGCUCCUAG | 0.0175 |
| ACGAACGAUAGUGAUACCAGACGUACAUGAGGAUCACCCAUGUUGUAAACAUGGUUAAUAGUCCCUUGGCAGCACGAUAAGUUCG | 0.499 |
| AGCCCUGUACUAGAUACCAGCUACAUGAGGAUCACCCAUGUGCGUCAAGACUGACUGUGUGGCCCUUGGCAGCUGCUCGCAUGUA | 0.208 |
| UACAUGAGGAUCACCCAUGUAUACAUGGAUACCAGCGACAAUGGGCGCCCUUGGCAGCUAGUGGAUGGAGGGUGGCCACAGUACU | 0.0718 |
| UUUGCACAUGAGGAUCACCCAUGUACAGAUACCAGCCUCAUCUACGGCCCUUGGCAGCUGAGACAAUGGUGACAUGAUGGGCUUU | 0.0326 |
| AAUAAGUACUUUGAUACCAGCCUGCCAUCAUGCUAAUUUACAUGAGGAUCACCCAUGUUAGGCCCUUGGCAGCAAAGUGCAAUAA | 0.0256 |
| AAAGAUACCAGAGAUACCAGCCAAAAUUAAAAUAAAACCUCACAUGAGGAUCACCCAUGUGGCCCUUGGCAGCUCCCUUGGCAGC | 0.0537 |
| ACAUGAACAUGAGGAUCACCCAUGUGGGAUACCAGCGUGUAUGAGCGCCCUUGGCAGCUCAUGACAUGAGGAUCACCCAUGUUGG | 0.453 |
| ACAUGAGGAUCACCCAUGUAACGUCUUGAUACCAGACGAGAAGUAGUCCCUUGGCAGCAAAUACGUGAGGGUCACACAUGUGUAA | 0.0615 |
| UGACAUUGCUGCGAUACCAGACAUGAGGAUCACCCAUGUACCAAGAAAACGUACAUAAAUGUCCCUUGGCAGCGCAGCAAUGUCU | 1.36 |
| AGACAUGAGGAUCACCCAUGUAGUACGGAUACCAGAUCCAGAUGUAUCCCUUGGCAGCUGUGGUACAGCGUUGCAACGCUCCUAG | 0.0153 |
| UAUAUGGUGAUGGAUACCAGCAGAGAAAACGUUUAUCCUAACAUGAGGAUCACCCAUGUAUGCCCUUGGCAGCUGUUGUUAUAUA | 0.0297 |
| AAGCAGGGUGUAAAAUAAAUAAUCACUGAUACCAGACUAUGAGAUGUCCCUUGGCAGCAGAAACAUGAGGAUCACCCAUGUAAUA | 0.0323 |
| UUUGCACAUGAGGAUCACCCAUGUACAGAUACCAGCCUCAUCUACGGCCCUUGGCAGCUGAGACAAUGGUGACGUGACGGGCUUU | 0.0282 |
| UACAUGAGGAUCACCCAUGUGGCGGAUGAUACCAGUAUGGUGACAUACCCUUGGCAGCAUGCUAUGAGGAUCACCCAUGUGUGCA | 0.166 |
| GCACCAGGUACGGAUACCAGCUAUAGGUACAUGUCAGGACAUGAGGAUCACCCAUGUGGUAGCCCUUGGCAGCUGUACCUGGUGC | 0.0272 |
| UCGUCCUCCGCAAGGAGGAGGAGUUGCGAUACCAGCACGGUAACGUGCCCUUGGCAGCGCACAUGAGGAUCACCCAUGUGGUGUU | 0.489 |
| UGGUUUGUGAUGGAUACCAGCAGAGAAAACGUUUAUCCUAACAUGAGGAUCACCCAUGUAUGCCCUUGGCAGCUGUUGUGGGCUG | 0.0389 |
| GUCAGUAGAACAGAUACCAGUCAAAGGCUGUGAUCUCAUAACAUGAGGAUCACCCAUGUUGACCCUUGGCAGCUGUGGGCGAGGG | 0.391 |
